Study system: thromboxane synthetase (Homo sapiens)
Construct: endogenous in cells
Sequence (P24557 whole entry): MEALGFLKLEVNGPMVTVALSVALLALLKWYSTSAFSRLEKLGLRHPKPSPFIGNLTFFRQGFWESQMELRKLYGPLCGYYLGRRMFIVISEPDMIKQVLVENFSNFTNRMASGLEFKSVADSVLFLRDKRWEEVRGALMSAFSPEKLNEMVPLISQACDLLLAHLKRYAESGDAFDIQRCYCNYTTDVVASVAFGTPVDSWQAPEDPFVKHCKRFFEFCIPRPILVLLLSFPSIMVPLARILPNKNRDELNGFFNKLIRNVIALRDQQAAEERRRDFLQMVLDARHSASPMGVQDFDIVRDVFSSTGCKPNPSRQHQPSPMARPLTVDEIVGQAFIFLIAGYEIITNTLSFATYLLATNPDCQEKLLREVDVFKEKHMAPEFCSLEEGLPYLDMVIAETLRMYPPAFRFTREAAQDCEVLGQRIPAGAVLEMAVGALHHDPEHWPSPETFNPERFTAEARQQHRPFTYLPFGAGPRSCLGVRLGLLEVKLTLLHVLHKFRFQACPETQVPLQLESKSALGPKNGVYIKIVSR
Test method notes: Inhibitory effect on thromboxane synthetase (TXB2 formation in human platelet suspension)
Condition description: 10 minutes at ambient temperature, then 14C-labelled arachidonic acid 10 minutes, read-out: Inhibition of thromboxane synthetase IC50
Binary call on IC50 with cut-off 40 nM: strictly below means Satisfied, and equality or higher means Not satisfied.

>>> df
                  compound_structure_string  assigned_category
0  N#CN=C(Nc1ccc(/C(=C\CCCC(=O)O)c2cccnc2)cc1)NC1CCCCC1      Not satisfied
1  CC(C)NC(=NC#N)Nc1cccc(/C(=C\CCCC(=O)O)c2cccnc2)c1          Satisfied
2  CC(C)CNC(Nc1cccc(/C(=C\CCCC(=O)O)c2cccnc2)c1)=C(C#N)C#N          Satisfied
3  CC(C)(C)NC(=NC#N)NCCc1ccc(C(=CCCCC(=O)O)c2cccnc2)cc1          Satisfied

###

Overview of recorded IC50 for various compounds
Study system: thromboxane synthetase (Homo sapiens)
Construct: endogenous in cells
Test method notes: Inhibitory effect on thromboxane synthetase (TXB2 formation in human platelet suspension)
Condition description: 10 minutes at ambient temperature, then 14C-labelled arachidonic acid 10 minutes, read-out: Inhibition of thromboxane synthetase IC50
Procedure: Determining the Inhibitory Effect on Thromboxane Synthetase Venous human blood is anti-coagulated with 13 mM Na3 citrate and centrifuged for 10 minutes at 170×g. The supernatant platelet-rich plasma is passed through a Sepharose 2B column in order to remove the plasma proteins. […] After cutting out, the activity is measured in a scintillation counter and the inhibition of the formation of TXB2 is calculated. The IC50 is determined by linear interpolation.
Experimental readout: IC50 (nM)

In [3]: df
Out[3]:
                                   compound                           study_system  output_unit  measured_result
0  N#CC(C#N)=C(Nc1cccc(/C(=C\CCCC(=O)O)c2cccnc2)c1)NC1CCCC1 [M]  thromboxane synthetase (Homo sapiens)           nM               33
1  CC(C)(C)CNC(=C[N+](=O)[O-])Nc1cccc(/C(=C\CCCC(=O)O)c2cccnc2)c1 [T]  thromboxane synthetase (Homo sapiens)           nM              290
2  N#CN=C(Nc1cccc(/C(=C\CCCC(=O)O)c2cccnc2)c1)NC1CCCC1 [C]  thromboxane synthetase (Homo sapiens)           nM                3
3  CC(C)CCNC(=NC#N)Nc1cccc(/C(=C\CCCC(=O)O)c2cccnc2)c1 [Example I]  thromboxane synthetase (Homo sapiens)           nM                3
4  CC(C)CNC(Nc1cccc(/C(=C\CCCC(=O)O)c2cccnc2)c1)=C(C#N)C(N)=O [X]  thromboxane synthetase (Homo sapiens)           nM                5

###

Study system: Thromboxane (Homo sapiens, UniProt P21731)
Construct: endogenous in cells
Sequence (P21731 1-343): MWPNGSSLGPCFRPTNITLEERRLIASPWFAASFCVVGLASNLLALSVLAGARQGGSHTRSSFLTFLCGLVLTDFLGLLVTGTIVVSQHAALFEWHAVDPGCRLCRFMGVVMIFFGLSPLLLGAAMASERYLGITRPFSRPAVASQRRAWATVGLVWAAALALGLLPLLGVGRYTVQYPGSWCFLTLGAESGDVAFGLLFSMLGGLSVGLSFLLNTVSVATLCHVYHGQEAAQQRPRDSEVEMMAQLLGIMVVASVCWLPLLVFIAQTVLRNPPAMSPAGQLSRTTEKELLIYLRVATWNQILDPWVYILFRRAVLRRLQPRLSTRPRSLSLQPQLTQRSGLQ
Test method notes: Thromboxane-antagonistic activity (displacement of 3H-labelled ligand on human platelets)
Condition description: human platelet suspension, 60 minutes at ambient temperature
Here the recorded log10 IC50 is given for each entry.
Experimental readout: log10 IC50 (log10 of the value in nM)

In [3]: df
Out[3]:
                                    molecule  measured_result
 0  N#CN=C(Nc1cccc(/C(=C\CCCC(=O)O)c2cccnc2)c1)NC1CCCC1             1.48
 1  CC(C)(C)CNC(Nc1cccc(/C(=C\CCCC(=O)O)c2cccnc2)c1)=C(C#N)C#N             0.48
 2  CC(C)(C)NC(=NC#N)Nc1cccc(C(CCCCC(=O)O)c2cccnc2)c1 (stereo not drawn)             2.08
 3  N#CC(C#N)=C(Nc1cccc(/C(=C\CCCC(=O)O)c2cccnc2)c1)NC1CCCC1             0.00
 4  CC(C)NC(=NC#N)Nc1cccc(/C(=C\CCCC(=O)O)c2cccnc2)c1             1.26
 5  CCCNC(Nc1cccc(/C(=C\CCCC(=O)O)c2cccnc2)c1)=C(C#N)C#N             1.57
 6  N#CN=C(Nc1cccc(/C(=C\CCCn2cnnn2)c2cccnc2)c1)NC1CCCC1             1.32
 7  CC(C)(C)NC(=NC#N)Nc1cccc(/C(=C\CCCC(=O)O)c2cccnc2)c1             1.04
 8  CC(C)CNC(=NC#N)Nc1cccc(/C(=C\CCCC(=O)O)c2cccnc2)c1             0.85
 9  CC(C)CCNC(Nc1cccc(/C(=C\CCCC(=O)O)c2cccnc2)c1)=C(C#N)C#N             1.18
10  N#CN=C(Nc1ccc(/C(=C\CCCC(=O)O)c2cccnc2)cc1)NC1CCCCC1             3.11
11  CC(C)CNC(Nc1cccc(/C(=C\CCCC(=O)O)c2cccnc2)c1)=C(C#N)C(N)=O             2.58
12  CC(C)CNC(=NS(N)(=O)=O)Nc1cccc(/C(=C\CCCC(=O)O)c2cccnc2)c1             2.78
13  CCCCCNC(=NC#N)Nc1cccc(/C(=C\CCCC(=O)O)c2cccnc2)c1             1.40
14  N#CN=C(Nc1cccc(/C(=C\CCCC(=O)O)c2cccnc2)c1)NC1CC1             1.23
15  N#CC(C#N)=C(Nc1cccc(/C(=C\CCCC(=O)O)c2cccnc2)c1)NC1CC1             1.79
16  N#CN=C(Nc1cccc(/C(=C\CCCC(=O)O)c2cccnc2)c1)N[C@@H]1C[C@H]2CC[C@@H]1C2 (relative stereo)             1.23
17  CC(C)(C)NC(=NS(=O)(=O)c1ccccc1)Nc1cccc(/C(=C\CCCC(=O)O)c2cccnc2)c1             1.74

###

Study system: Thromboxane (Homo sapiens, UniProt P21731)
Construct: endogenous in cells
Test method notes: Thromboxane-antagonistic activity (displacement of 3H-labelled ligand on human platelets)
Condition description: human platelet suspension, 60 minutes at ambient temperature
Listing of entries alongside the reported IC50.
Experimental readout: IC50 (nM)

In [3]: df
Out[3]:
                  compound_structure_string  experimental_readout  measured_result
0  CC(C)CCNC(=NC#N)Nc1cccc(/C(=C\CCCC(=O)O)c2cccnc2)c1                  IC50               27
1  CC(C)(C)NC(Nc1cccc(/C(=C\CCCC(=O)O)c2cccnc2)c1)=C(C#N)C#N                  IC50               50
2  CC(C)(C)CNC(=C[N+](=O)[O-])Nc1cccc(/C(=C\CCCC(=O)O)c2cccnc2)c1                  IC50              280
3  CC(C)CNC(Nc1cccc(/C(=C\CCCC(=O)O)c2cccnc2)c1)=C(C#N)C#N                  IC50                2
4  CC(C)NC(Nc1cccc(/C(=C\CCCC(=O)O)c2cccnc2)c1)=C(C#N)C#N                  IC50                2
5  CC(C)(C)CNC(=NC#N)Nc1cccc(/C(=C\CCCC(=O)O)c2cccnc2)c1                  IC50               22
6  CC(C)(C)NC(=NC#N)NCCc1ccc(C(=CCCCC(=O)O)c2cccnc2)cc1                  IC50               50

###

Study system: thromboxane synthetase (Homo sapiens)
Construct: endogenous in cells
Test method notes: Inhibitory effect on thromboxane synthetase (TXB2 formation in human platelet suspension)
Condition description: 10 minutes at ambient temperature, then 14C-labelled arachidonic acid 10 minutes, read-out: Inhibition of thromboxane synthetase IC50
pIC50: −log10 of the molar value.
Experimental readout: pIC50

>>> df
                                   compound  measured_result
0  CC(C)(C)CNC(=NC#N)Nc1cccc(/C(=C\CCCC(=O)O)c2cccnc2)c1             7.85
1  N#CN=C(Nc1cccc(/C(=C\CCCC(=O)O)c2cccnc2)c1)N[C@@H]1C[C@H]2CC[C@@H]1C2 (relative stereo)             8.40
2  CC(C)(C)CNC(Nc1cccc(/C(=C\CCCC(=O)O)c2cccnc2)c1)=C(C#N)C#N             7.36
3  CC(C)CCNC(Nc1cccc(/C(=C\CCCC(=O)O)c2cccnc2)c1)=C(C#N)C#N             7.51
4  N#CN=C(Nc1cccc(/C(=C\CCCC(=O)O)c2cccnc2)c1)NC1CC1             6.42
